Some binders, each annotated with its measured IC50, IL-8 release, HEKa stimulated with IL-1β.
Molecular target: human IL-1RAcP on cells (human, UniProt Q9NPH3 21-570)
Experiment: cell-based or functional assay
measured-endpoint: IC50, IL-8 release, HEKa stimulated with IL-1β

| binder | experimental-value |
| --- | --- |
| Y024084_h_IgG1f_AEASS (antibody, V domains shown, also called Morphosys 24084; Mor Y024084) VH: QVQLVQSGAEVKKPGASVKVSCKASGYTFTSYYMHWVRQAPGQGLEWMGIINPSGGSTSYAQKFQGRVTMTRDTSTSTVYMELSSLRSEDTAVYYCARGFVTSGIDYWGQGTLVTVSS VL: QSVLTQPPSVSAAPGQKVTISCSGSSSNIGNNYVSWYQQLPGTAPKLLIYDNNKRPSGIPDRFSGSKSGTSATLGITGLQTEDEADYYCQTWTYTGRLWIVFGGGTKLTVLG | 19 nM |
| R001031 (CAN04) (antibody, human IgG1, kappa, V domains shown, Variable domains of prior art CAN04 on human IgG1 kappa constant regions with AEASS) VH: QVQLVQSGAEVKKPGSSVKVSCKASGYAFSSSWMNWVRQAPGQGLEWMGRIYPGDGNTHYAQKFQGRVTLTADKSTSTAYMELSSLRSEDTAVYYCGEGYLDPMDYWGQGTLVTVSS VL: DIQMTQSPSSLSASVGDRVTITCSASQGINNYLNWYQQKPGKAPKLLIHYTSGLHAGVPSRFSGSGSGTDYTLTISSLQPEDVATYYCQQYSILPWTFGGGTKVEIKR | 18 nM |
| R001032 (1A05) (antibody, human IgG1, kappa, V domains shown, Rabbit variable domains of prior art 1A05 on human IgG1 kappa constant regions with AEASS; also called P013.S.01.B.A05) VH: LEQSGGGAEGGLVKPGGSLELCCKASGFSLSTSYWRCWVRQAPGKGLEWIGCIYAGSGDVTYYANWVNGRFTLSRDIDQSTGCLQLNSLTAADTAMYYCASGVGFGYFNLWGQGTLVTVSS VL: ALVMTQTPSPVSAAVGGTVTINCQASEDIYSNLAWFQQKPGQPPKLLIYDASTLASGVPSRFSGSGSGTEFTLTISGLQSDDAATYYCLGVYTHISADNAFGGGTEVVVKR | 162 nM |
